# System tested: GTPase HRas (Homo sapiens) (UniProt P01112)
# Sequence (P01112 whole entry, looked up): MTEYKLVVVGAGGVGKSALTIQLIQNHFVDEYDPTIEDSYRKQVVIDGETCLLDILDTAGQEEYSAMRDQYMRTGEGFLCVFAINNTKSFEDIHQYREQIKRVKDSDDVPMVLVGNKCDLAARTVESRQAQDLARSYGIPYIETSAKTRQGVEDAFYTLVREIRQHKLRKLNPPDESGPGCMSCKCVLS
# Experiment: mutant Ras fluorescent GTP loading blockade – biochemical, oxadiazole analogs, activated mutant, multiplex flow cytometry, SAR follow-up (AID 2042)
# Condition notes: GST-Ras beads, Bodipy-FL-GTP binding, measured here: Ki calculated from EC50
pKi: −log10 of the molar value.

| Smiles entry | pKi |
| --- | --- |
| COc1cccc(-c2noc(CCC(=O)N3CCN(c4cc(C)ccc4C)CC3)n2)c1 | 6.55 |
| COc1ccc(-c2noc(CCC(=O)N3CCN(c4ccccc4F)CC3)n2)cc1 | 7.22 |
| COc1ccc(-c2noc(CCC(=O)N3CCN(c4cc(C)ccc4C)CC3)n2)cc1 | 6.92 |

---

Measured EC50, listed per entry.
# System tested: GTPase HRas (Homo sapiens) (UniProt P01112)
# Experiment: mutant Ras fluorescent GTP loading blockade – biochemical, oxadiazole analogs, activated mutant, multiplex flow cytometry, SAR follow-up (AID 2042)
# Condition notes: GST-Ras beads, Bodipy-FL-GTP binding
The source made the active and inactive calls.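 How the source made its calls: active means EC50 at most 30 µM plus a dose-response curve spanning at least 25% response; inactive means the rest.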

| Smiles entry | EC50 |
| --- | --- |
| COc1ccc(-c2noc(CCC(=O)N3CCN(c4cccc(Br)c4)CC3)n2)cc1 | > 30 µM (inactive) |
| COc1ccc(-c2noc(CC(=O)N3CCN(c4cc(C)ccc4C)CC3)n2)cc1 | > 30 µM (inactive) |
| COc1ccc(-c2noc(CCC(=O)N3CCN(c4ccccc4OC)CC3)n2)cc1 | > 30 µM (inactive) |
| Cc1ccc(C)c(N2CCN(C(=O)CCc3nc(-c4ccccc4C(F)(F)F)no3)CC2)c1 | > 30 µM (inactive) |
| Cc1ccc(C)c(N2CCN(C(=O)CCc3nc(-c4cccc(Br)c4)no3)CC2)c1 | > 30 µM (inactive) |
| COc1ccc(-c2ccc(CCC(=O)N3CCN(c4cc(C)ccc4C)CC3)s2)cc1 | > 30 µM (inactive) |
| Cc1ccc(C)c(N2CCN(C(=O)CCc3nc(-c4ccccc4)no3)CC2)c1 | > 30 µM (inactive) |
| COc1ccc(-c2noc(CCC(=O)N3CCC(c4cc(C)ccc4C)CC3)n2)cc1 | > 30 µM (inactive) |
| Cc1cccc(-c2noc(CCC(=O)N3CCN(c4cc(C)ccc4C)CC3)n2)c1 | > 30 µM (inactive) |
| Cc1ccc(C)c(N2CCN(C(=O)CCc3nc(-c4ccccc4Cl)no3)CC2)c1 | > 30 µM (inactive) |
| Cc1ccc(C)c(N2CCN(C(=O)CCc3nc(-c4cccc(F)c4)no3)CC2)c1 | > 30 µM (inactive) |
